target_or_system: Yap3 (UniProt P38749)
Sequence: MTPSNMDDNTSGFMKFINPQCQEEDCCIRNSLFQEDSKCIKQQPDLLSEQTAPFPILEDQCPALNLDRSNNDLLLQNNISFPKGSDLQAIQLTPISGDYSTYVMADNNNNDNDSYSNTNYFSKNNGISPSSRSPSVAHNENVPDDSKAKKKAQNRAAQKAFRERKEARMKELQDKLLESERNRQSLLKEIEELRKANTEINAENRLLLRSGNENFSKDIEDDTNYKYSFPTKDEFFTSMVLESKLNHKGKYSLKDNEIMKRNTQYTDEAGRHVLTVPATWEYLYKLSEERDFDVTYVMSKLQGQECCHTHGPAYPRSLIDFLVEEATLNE
procedure_summary: PBM E-score (8-mer binding enrichment) (E-score (-0.5 to 0.5)); higher = stronger / more preferred TF binding
test_settings: protein concentration: 100 nM; construct: GST-full length
The full ranking holds about 33,000 sequences; the median of “E-score (-0.5 to 0.5)” is about -0.0034, and the highest 2% start at about 0.25. For the sample, the highest values were picked, then their nearest neighbours and some sequences at random.
Binary classification by PBM E-score, with 0.2 as an inclusive lower bound for y; all other cases are n.

CCACCCAA; n
ATAATACG; y
GATTTCCA; n
ACAAAGTG; n
GTAATACA; y

Lookup: Reported PBM E-score at or above 0.2? AAGCTAAC
Found: n

Lookup: Reported PBM E-score at or above 0.2? ATACTACA
Found: y
